These measurements were taken from PubChem BioAssay AID1963842.

Item-by-item account of viability, T/C
Tested on: 677734-321-R-J1-PDC complex spheroid viability
run description: Anticancer human tumor 677734-321-R-J1-PDC patient-derived soft tissue sarcoma cell line growth inhibition [POLQ]
condition description: second compound 0.0316 µM; first compound 3.16 µM; hits give low values
recorded endpoint: viability, T/C (%)

{"columns": ["compound", "recorded endpoint", "test result"],
 "data": [
  ["CCCS(=O)(=O)Nc1ccc(F)c(C(=O)c2c[nH]c3ncc(-c4ccc(Cl)cc4)cc23)c1F + COC1C(OC(N)=O)C(O)C(Oc2ccc3c(O)c(NC(=O)c4ccc(O)c(CC=C(C)C)c4)c(=O)oc3c2C)OC1(C)C", "viability, T/C", 106],
  ["COc1cc(C2c3cc4c(cc3C(OC3OC5COC(C)OC5C(O)C3O)C3COC(=O)C23)OCO4)cc(OC)c1O (stereo unspecified) + Nc1ccc(C#CCN(C(=O)Cc2ncc(C(F)(F)F)cc2C(F)(F)F)c2ccc(F)cc2)nn1", "viability, T/C", 16.8],
  ["Nc1ccn(C2OC(CO)C(O)C2(F)F)c(=O)n1 (stereo unspecified) + Cc1cccc(N(C)C(=O)C2C(O)CCN2c2nc(C)cc(C(F)(F)F)c2C#N)c1", "viability, T/C", 14.9],
  ["COc1cc2cc(C(=O)CCC(=O)O)sc2cc1OC + Nc1ccc(C#CCN(C(=O)Cc2ncc(C(F)(F)F)cc2C(F)(F)F)c2ccc(F)cc2)nn1", "viability, T/C", 108],
  ["COc1ccc([C@@H](O)c2cc(-c3ncnc4cc(N5CCOCC5)ccc34)c(F)cc2Cl)nn1 + Cc1cccc(N(C)C(=O)C2C(O)CCN2c2nc(C)cc(C(F)(F)F)c2C#N)c1", "viability, T/C", 74.9],
  ["CC1COCCN1c1cc(C2(S(C)(=N)=O)CC2)nc(-c2ccnc3[nH]ccc23)n1 (stereo unspecified) + Cc1cccc(N(C)C(=O)C2C(O)CCN2c2nc(C)cc(C(F)(F)F)c2C#N)c1", "viability, T/C", 57]
]}

###

Tested on: 677734-321-R-J1-PDC complex spheroid viability
run description: Anticancer human tumor 677734-321-R-J1-PDC cell line growth inhibition [POLQ];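 further: spheroids exposed to compounds for one week; 100% = vehicle DMSO treated spheroids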
condition description: second compound 0.316 µM; first compound 0.0316 µM; hits give low values
Item-by-item account of viability, T/C
recorded endpoint: viability, T/C (%)

{"columns": ["compound", "target desc", "test result"],
 "data": [
  ["CCc1cc2c(N3CCc4c(cc(Cn5ccnc5)cc4-c4cn(C)nc4C(F)(F)F)C3=O)ccnc2c(OC)n1 + COC1C(OC(N)=O)C(O)C(Oc2ccc3c(O)c(NC(=O)c4ccc(O)c(CC=C(C)C)c4)c(=O)oc3c2C)OC1(C)C", "677734-321-R-J1-PDC complex spheroid viability", 117],
  ["Nc1ccn(C2OC(CO)C(O)C2(F)F)c(=O)n1 (stereo not given) + Nc1ccc(C#CCN(C(=O)Cc2ncc(C(F)(F)F)cc2C(F)(F)F)c2ccc(F)cc2)nn1", "677734-321-R-J1-PDC complex spheroid viability", 18.4],
  ["O=C(Nc1ccc(O)c(NS(=O)(=O)c2ccc(F)cc2)c1)c1ccc(-c2ccccc2)cc1 + COC1C(OC(N)=O)C(O)C(Oc2ccc3c(O)c(NC(=O)c4ccc(O)c(CC=C(C)C)c4)c(=O)oc3c2C)OC1(C)C", "677734-321-R-J1-PDC complex spheroid viability", 111],
  ["CCCS(=O)(=O)Nc1ccc(F)c(C(=O)c2c[nH]c3ncc(-c4ccc(Cl)cc4)cc23)c1F + Cc1cccc(N(C)C(=O)C2C(O)CCN2c2nc(C)cc(C(F)(F)F)c2C#N)c1", "677734-321-R-J1-PDC complex spheroid viability", 90.7],
  ["CC1COCCN1c1cc(-c2ccnn2C)c2ccnc(-c3ccn[nH]3)c2n1 (stereo not given) + COC1C(OC(N)=O)C(O)C(Oc2ccc3c(O)c(NC(=O)c4ccc(O)c(CC=C(C)C)c4)c(=O)oc3c2C)OC1(C)C", "677734-321-R-J1-PDC complex spheroid viability", 95.8],
  ["CCc1cc2c(N3CCc4c(cc(Cn5ccnc5)cc4-c4cn(C)nc4C(F)(F)F)C3=O)cc(C)nc2c(OC)n1 + COC1C(OC(N)=O)C(O)C(Oc2ccc3c(O)c(NC(=O)c4ccc(O)c(CC=C(C)C)c4)c(=O)oc3c2C)OC1(C)C", "677734-321-R-J1-PDC complex spheroid viability", 112],
  ["CNCc1ccc(-c2[nH]c3cc(F)cc4c3c2CCNC4=O)cc1 + Nc1ccc(C#CCN(C(=O)Cc2ncc(C(F)(F)F)cc2C(F)(F)F)c2ccc(F)cc2)nn1", "677734-321-R-J1-PDC complex spheroid viability", 100],
  ["O=C(c1cc(Cc2n[nH]c(=O)c3ccccc23)ccc1F)N1CCN(C(=O)C2CC2)CC1 + Nc1ccc(C#CCN(C(=O)Cc2ncc(C(F)(F)F)cc2C(F)(F)F)c2ccc(F)cc2)nn1", "677734-321-R-J1-PDC complex spheroid viability", 110],
  ["CCc1c2c(nc3ccc(O)cc13)-c1cc3c(c(=O)n1C2)COC(=O)[C@]3(O)CC + Cc1cccc(N(C)C(=O)C2C(O)CCN2c2nc(C)cc(C(F)(F)F)c2C#N)c1", "677734-321-R-J1-PDC complex spheroid viability", 4.71],
  ["CC[C@@]1(O)C(=O)OCc2c1cc1n(c2=O)Cc2cc3c(CN(C)C)c(O)ccc3nc2-1 + Nc1ccc(C#CCN(C(=O)Cc2ncc(C(F)(F)F)cc2C(F)(F)F)c2ccc(F)cc2)nn1", "677734-321-R-J1-PDC complex spheroid viability", 28.1]
]}

###

Tested on: 677734-321-R-J1-PDC complex spheroid viability
run description: Anticancer human tumor 677734-321-R-J1-PDC cell line growth inhibition [POLQ];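 further: spheroids exposed to compounds for one week; 100% = vehicle DMSO treated spheroids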
condition description: second compound 1 µM; first compound 0.1 µM; hits give low values
Procedure: Multicellular complex tumor spheroid response to Polymerase (POL) inhibitors (novobiocin, ART-558, RP6685) in combination with a variety of drugs and investigational agents in selected tumor cell lines The POL inhibitors (novobiocin, ART-558, and RP6685) were evaluated both individually and in combination with standard of care and investigational anticancer small molecules within a complex spheroid model of solid tumors. . […]

{"columns": ["molecule", "target desc", "viability, T/C"],
 "data": [
  ["C=CCn1c(=O)c2cnc(Nc3ccc(N4CCN(C)CC4)cc3)nc2n1-c1cccc(C(C)(C)O)n1 + Cc1cccc(N(C)C(=O)C2C(O)CCN2c2nc(C)cc(C(F)(F)F)c2C#N)c1", "677734-321-R-J1-PDC complex spheroid viability", "85%"],
  ["CCc1cc2c(N3CCc4c(cc(Cn5ccnc5)cc4-c4cn(C)nc4C(F)(F)F)C3=O)cc(C)nc2c(OC)n1 + Cc1cccc(N(C)C(=O)C2C(O)CCN2c2nc(C)cc(C(F)(F)F)c2C#N)c1", "677734-321-R-J1-PDC complex spheroid viability", "106%"],
  ["C#Cc1c(F)ccc2cc(O)cc(-c3ncc4c(N5CC6CCC(C5)N6)nc(OCC56CCCN5CC(F)C6)nc4c3F)c12 (stereo not given) + Nc1ccc(C#CCN(C(=O)Cc2ncc(C(F)(F)F)cc2C(F)(F)F)c2ccc(F)cc2)nn1", "677734-321-R-J1-PDC complex spheroid viability", "104%"],
  ["O=C(c1cc(Cc2n[nH]c(=O)c3ccccc23)ccc1F)N1CCN(C(=O)C2CC2)CC1 + Cc1cccc(N(C)C(=O)C2C(O)CCN2c2nc(C)cc(C(F)(F)F)c2C#N)c1", "677734-321-R-J1-PDC complex spheroid viability", "93.3%"],
  ["CC[C@@]1(O)C(=O)OCc2c1cc1n(c2=O)Cc2cc3c(CN(C)C)c(O)ccc3nc2-1 + Nc1ccc(C#CCN(C(=O)Cc2ncc(C(F)(F)F)cc2C(F)(F)F)c2ccc(F)cc2)nn1", "677734-321-R-J1-PDC complex spheroid viability", "12.8%"]
]}

###

System: 677734-321-R-J1-PDC complex spheroid viability
run description: Anticancer human tumor 677734-321-R-J1-PDC cell line growth inhibition [POLQ]; active means viability on the fitted dose curve at most 10% of control; inactive means the rest;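 further: spheroids exposed to compounds for one week; 100% = vehicle DMSO treated spheroids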
condition description: second compound 10 µM; first compound 0.0316 µM
Possible outcomes: active, inactive

{"columns": ["molecule", "label value"],
 "data": [
  ["CNCc1ccc(-c2[nH]c3cc(F)cc4c3c2CCNC4=O)cc1 + COC1C(OC(N)=O)C(O)C(Oc2ccc3c(O)c(NC(=O)c4ccc(O)c(CC=C(C)C)c4)c(=O)oc3c2C)OC1(C)C", "inactive"],
  ["COc1cc2cc(C(=O)CCC(=O)O)sc2cc1OC + Cc1cccc(N(C)C(=O)C2C(O)CCN2c2nc(C)cc(C(F)(F)F)c2C#N)c1", "inactive"],
  ["O=C(Nc1ccc(O)c(NS(=O)(=O)c2ccc(F)cc2)c1)c1ccc(-c2ccccc2)cc1 + COC1C(OC(N)=O)C(O)C(Oc2ccc3c(O)c(NC(=O)c4ccc(O)c(CC=C(C)C)c4)c(=O)oc3c2C)OC1(C)C", "inactive"],
  ["CC1COCCN1c1cc(-c2ccnn2C)c2ccnc(-c3ccn[nH]3)c2n1 (stereo unspecified) + COC1C(OC(N)=O)C(O)C(Oc2ccc3c(O)c(NC(=O)c4ccc(O)c(CC=C(C)C)c4)c(=O)oc3c2C)OC1(C)C", "inactive"],
  ["CC1COCCN1c1cc(C2(S(C)(=N)=O)CC2)nc(-c2ccnc3[nH]ccc23)n1 (stereo unspecified) + Nc1ccc(C#CCN(C(=O)Cc2ncc(C(F)(F)F)cc2C(F)(F)F)c2ccc(F)cc2)nn1", "inactive"],
  ["CCc1cc2c(N3CCc4c(cc(Cn5ccnc5)cc4-c4cn(C)nc4C(F)(F)F)C3=O)cc(C)nc2c(OC)n1 + COC1C(OC(N)=O)C(O)C(Oc2ccc3c(O)c(NC(=O)c4ccc(O)c(CC=C(C)C)c4)c(=O)oc3c2C)OC1(C)C", "inactive"],
  ["COc1ccc([C@@H](O)c2cc(-c3ncnc4cc(N5CCOCC5)ccc34)c(F)cc2Cl)nn1 + Cc1cccc(N(C)C(=O)C2C(O)CCN2c2nc(C)cc(C(F)(F)F)c2C#N)c1", "inactive"],
  ["CCc1cc2c(N3CCc4c(cc(Cn5ccnc5)cc4-c4cn(C)nc4C(F)(F)F)C3=O)ccnc2c(OC)n1 + Nc1ccc(C#CCN(C(=O)Cc2ncc(C(F)(F)F)cc2C(F)(F)F)c2ccc(F)cc2)nn1", "inactive"],
  ["CCc1c2c(nc3ccc(O)cc13)-c1cc3c(c(=O)n1C2)COC(=O)[C@]3(O)CC + Nc1ccc(C#CCN(C(=O)Cc2ncc(C(F)(F)F)cc2C(F)(F)F)c2ccc(F)cc2)nn1", "active"],
  ["CC1COCCN1c1cc(-c2ccnn2C)c2ccnc(-c3ccn[nH]3)c2n1 (stereo unspecified) + Cc1cccc(N(C)C(=O)C2C(O)CCN2c2nc(C)cc(C(F)(F)F)c2C#N)c1", "inactive"],
  ["CC(C)n1c(=O)n(C)c2cnc3cc(F)c(-c4ccc(OCCCN5CCCCC5)nc4)cc3c21 + Cc1cccc(N(C)C(=O)C2C(O)CCN2c2nc(C)cc(C(F)(F)F)c2C#N)c1", "inactive"]
]}
